Hello, the source for this data is the supplement of paper PMC9112550, in case you need it.

# System: Escherichia coli TOP10
# experiment: shrunken log2 fold change of peptide-encoding DNA abundance (4.5 h post-induction vs induction); higher = less antimicrobial activity (less host growth inhibition)
# assay.context: time post-induction: 4.5 h; library: site-saturation at positions 5, 18, 19, 20
Kindly return yes (1) if reported shrunken log2 fold change is no lower than -0.009; return no (0) if it is lower.

Is shrunken log2 fold change for RRIRSRPPRLPRPRPRPRMFPRP at or above -0.009? no (0)

Is shrunken log2 fold change for RRIRSRPPRLPRPRPRPHQTPRP at or above -0.009? no (0)

Is shrunken log2 fold change for RRIRPRPPRLPRPRPRPTWAPRP at or above -0.009? yes (1)

Is shrunken log2 fold change for RRIRIRPPRLPRPRPRPTLKPRP at or above -0.009? no (0)

Is shrunken log2 fold change for RRIRCRPPRLPRPRPRPLYSPRP at or above -0.009? no (0)

Is shrunken log2 fold change for RRIRMRPPRLPRPRPRPKVTPRP at or above -0.009? yes (1)

Is shrunken log2 fold change for RRIRHRPPRLPRPRPRPAVNPRP at or above -0.009? no (0)

Is shrunken log2 fold change for RRIRKRPPRLPRPRPRPDLYPRP at or above -0.009? no (0)

Is shrunken log2 fold change for RRIRNRPPRLPRPRPRPGPVPRP at or above -0.009? yes (1)

Is shrunken log2 fold change for RRIRMRPPRLPRPRPRPRPTPRP at or above -0.009? yes (1)

Is shrunken log2 fold change for RRIRVRPPRLPRPRPRPIMQPRP at or above -0.009? no (0)

Is shrunken log2 fold change for RRIRGRPPRLPRPRPRPPLPPRP at or above -0.009? yes (1)

Is shrunken log2 fold change for RRIRERPPRLPRPRPRPSKWPRP at or above -0.009? no (0)

Is shrunken log2 fold change for RRIRPRPPRLPRPRPRPWNQPRP at or above -0.009? no (0)

Is shrunken log2 fold change for RRIRFRPPRLPRPRPRPDTPPRP at or above -0.009? yes (1)

Is shrunken log2 fold change for RRIRSRPPRLPRPRPRPQLIPRP at or above -0.009? no (0)

* * *

# System: Escherichia coli TOP10;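 note: peptides expressed intracellularly from a pBAD plasmid library in pooled LB shake-flask culture, induced with 0.3% L-arabinose, DNA abundance read by NGS, three biological replicates, DESeq2 with apeglm shrinkage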
# experiment: shrunken log2 fold change of peptide-encoding DNA abundance (4.5 h post-induction vs induction); higher = less antimicrobial activity (less host growth inhibition)
# assay.context: time post-induction: 4.5 h; library: site-saturation at positions 5, 18, 19, 20
Kindly return 1.0 if reported shrunken log2 fold change is no lower than -0.06; return 0.0 if it is lower.

Is shrunken log2 fold change for RRIRARPPRLPRPRPRPNKTPRP at or above -0.06? 0.0

Is shrunken log2 fold change for RRIRPRPPRLPRPRPRPSRYPRP at or above -0.06? 0.0

Is shrunken log2 fold change for RRIRHRPPRLPRPRPRPWSPPRP at or above -0.06? 0.0

Is shrunken log2 fold change for RRIRGRPPRLPRPRPRPGCGPRP at or above -0.06? 1.0

Is shrunken log2 fold change for RRIRDRPPRLPRPRPRPTQMPRP at or above -0.06? 1.0

Is shrunken log2 fold change for RRIRIRPPRLPRPRPRPRLKPRP at or above -0.06? 1.0

Is shrunken log2 fold change for RRIRTRPPRLPRPRPRPAGEPRP at or above -0.06? 1.0

Is shrunken log2 fold change for RRIRCRPPRLPRPRPRPMYTPRP at or above -0.06? 0.0

Is shrunken log2 fold change for RRIRWRPPRLPRPRPRPWHQPRP at or above -0.06? 1.0

Is shrunken log2 fold change for RRIRDRPPRLPRPRPRPEMIPRP at or above -0.06? 1.0

Is shrunken log2 fold change for RRIRDRPPRLPRPRPRPYEKPRP at or above -0.06? 0.0

Is shrunken log2 fold change for RRIRVRPPRLPRPRPRPHWQPRP at or above -0.06? 1.0

Is shrunken log2 fold change for RRIRTRPPRLPRPRPRPAHEPRP at or above -0.06? 1.0

Is shrunken log2 fold change for RRIRYRPPRLPRPRPRPPRSPRP at or above -0.06? 0.0

Is shrunken log2 fold change for RRIRNRPPRLPRPRPRPHCWPRP at or above -0.06? 1.0

Is shrunken log2 fold change for RRIRSRPPRLPRPRPRPTNKPRP at or above -0.06? 0.0

Is shrunken log2 fold change for RRIRVRPPRLPRPRPRPFYSPRP at or above -0.06? 0.0

Is shrunken log2 fold change for RRIRSRPPRLPRPRPRPPKDPRP at or above -0.06? 0.0

Is shrunken log2 fold change for RRIRIRPPRLPRPRPRPYVCPRP at or above -0.06? 1.0

Is shrunken log2 fold change for RRIRGRPPRLPRPRPRPSMSPRP at or above -0.06? 1.0

Is shrunken log2 fold change for RRIRPRPPRLPRPRPRPFYSPRP at or above -0.06? 0.0

Is shrunken log2 fold change for RRIRPRPPRLPRPRPRPWRCPRP at or above -0.06? 1.0

Is shrunken log2 fold change for RRIRDRPPRLPRPRPRPMFYPRP at or above -0.06? 0.0

Is shrunken log2 fold change for RRIRNRPPRLPRPRPRPQGKPRP at or above -0.06? 1.0

Is shrunken log2 fold change for RRIRQRPPRLPRPRPRPKQFPRP at or above -0.06? 1.0

Is shrunken log2 fold change for RRIRMRPPRLPRPRPRPDDVPRP at or above -0.06? 1.0

Is shrunken log2 fold change for RRIRERPPRLPRPRPRPVTCPRP at or above -0.06? 0.0

Is shrunken log2 fold change for RRIRQRPPRLPRPRPRPLPIPRP at or above -0.06? 1.0

Is shrunken log2 fold change for RRIRTRPPRLPRPRPRPEEDPRP at or above -0.06? 1.0

Is shrunken log2 fold change for RRIRFRPPRLPRPRPRPQKYPRP at or above -0.06? 0.0

Is shrunken log2 fold change for RRIRSRPPRLPRPRPRPFYYPRP at or above -0.06? 0.0

Is shrunken log2 fold change for RRIRPRPPRLPRPRPRPHLKPRP at or above -0.06? 1.0

Is shrunken log2 fold change for RRIRWRPPRLPRPRPRPSNCPRP at or above -0.06? 1.0

Is shrunken log2 fold change for RRIRNRPPRLPRPRPRPYLSPRP at or above -0.06? 0.0

Is shrunken log2 fold change for RRIRLRPPRLPRPRPRPLQRPRP at or above -0.06? 1.0

Is shrunken log2 fold change for RRIRLRPPRLPRPRPRPFEEPRP at or above -0.06? 1.0

Is shrunken log2 fold change for RRIRSRPPRLPRPRPRPSDRPRP at or above -0.06? 0.0

Is shrunken log2 fold change for RRIRGRPPRLPRPRPRPHRCPRP at or above -0.06? 1.0

Is shrunken log2 fold change for RRIRKRPPRLPRPRPRPGGSPRP at or above -0.06? 1.0

Is shrunken log2 fold change for RRIRHRPPRLPRPRPRPSRRPRP at or above -0.06? 0.0

Is shrunken log2 fold change for RRIRGRPPRLPRPRPRPANAPRP at or above -0.06? 1.0

Is shrunken log2 fold change for RRIRIRPPRLPRPRPRPVIFPRP at or above -0.06? 0.0

Is shrunken log2 fold change for RRIRKRPPRLPRPRPRPHCHPRP at or above -0.06? 1.0

Is shrunken log2 fold change for RRIRTRPPRLPRPRPRPACLPRP at or above -0.06? 0.0

Is shrunken log2 fold change for RRIRWRPPRLPRPRPRPTYDPRP at or above -0.06? 1.0

Is shrunken log2 fold change for RRIRWRPPRLPRPRPRPRATPRP at or above -0.06? 1.0

Is shrunken log2 fold change for RRIRQRPPRLPRPRPRPARRPRP at or above -0.06? 1.0

Is shrunken log2 fold change for RRIRARPPRLPRPRPRPIAWPRP at or above -0.06? 1.0

Is shrunken log2 fold change for RRIRWRPPRLPRPRPRPTTVPRP at or above -0.06? 1.0

Is shrunken log2 fold change for RRIRCRPPRLPRPRPRPTKRPRP at or above -0.06? 1.0

Is shrunken log2 fold change for RRIRYRPPRLPRPRPRPWNDPRP at or above -0.06? 0.0

Is shrunken log2 fold change for RRIRVRPPRLPRPRPRPCSEPRP at or above -0.06? 0.0

Is shrunken log2 fold change for RRIRWRPPRLPRPRPRPEGWPRP at or above -0.06? 1.0
